- System: galium
- METHOD DESCRIPTION: Test C pre-/postemergence herbicide test
- Format: in vivo, Galium aparine
- DETAILS: Preemergence, 250 g ai/ha
VALUE KIND: Plant response rating (scale of 0 to 100), Galium

Here O=C1NCC(c2ccc(F)c(F)c2)C1C(=O)Nc1ccc(F)c(F)c1F (centres unmarked) [Compound 346] was tested on galium, and its Plant response rating (scale of 0 to 100), Galium came to 90

Here CN1CC(c2ccc(F)c(F)c2)C(C(=O)Nc2cccc(F)c2F)C1=O (centres unmarked) [Compound 303] was tested on galium, and its Plant response rating (scale of 0 to 100), Galium came to 85

Here O=C1NCC(c2cccc(C(F)(F)F)c2)C1C(=O)Nc1ccc(F)c(F)c1F (centres unmarked) [Compound 345] was tested on galium, and its Plant response rating (scale of 0 to 100), Galium came to 85

Here CN1CC(c2ccc(C(F)(F)F)cc2)C(C(=O)Nc2cccc(F)c2F)C1=O (centres unmarked) [Compound 306] was tested on galium, and its Plant response rating (scale of 0 to 100), Galium came to 90

Here O=C1NCC(c2ccc(OC(F)F)cc2)C1C(=O)Nc1cccc(F)c1F (racemic) [Compound 350] was tested on galium, and its Plant response rating (scale of 0 to 100), Galium came to 90

Here O=C1NCC(c2ccc(C(F)(F)F)cc2)C1C(=O)Nc1ccccc1F (centres unmarked) [Compound 231] was tested on galium, and its Plant response rating (scale of 0 to 100), Galium came to 90

Here O=C1NCC(c2cccc(OC(F)F)c2)C1C(=O)Nc1ccccc1F (centres unmarked) [Compound 323] was tested on galium, and its Plant response rating (scale of 0 to 100), Galium came to 85

Here O=C1NCC(c2ccc(C(F)(F)F)cc2)C1C(=O)Nc1cccc(F)c1F (racemic) [Compound 202] was tested on galium, and its Plant response rating (scale of 0 to 100), Galium came to 90

* * *

For each entry below, report its Plant response rating (scale of 0 to 100), Soybean value.
- Test system: soybean
- METHOD DESCRIPTION: Test C pre-/postemergence herbicide test
- Type: in vivo, Glycine max
- DETAILS: Preemergence, 250 g ai/ha
Hey, just send me the number, nothing else.

According to the records, this molecule O=C1NCC(c2ccc(F)c(F)c2)C1C(=O)Nc1cccc(F)c1F (racemic) displays Plant response rating (scale of 0 to 100), Soybean of 10

According to the records, this molecule CN1CC(c2ccc(F)c(F)c2)C(C(=O)Nc2cccc(F)c2F)C1=O (centres unmarked) displays Plant response rating (scale of 0 to 100), Soybean of 20

According to the records, this molecule O=C1NCC(c2cc(F)cc(F)c2)C1C(=O)Nc1ccccc1Cl (racemic) displays Plant response rating (scale of 0 to 100), Soybean of 0

According to the records, this molecule O=C1NCC(c2cccc(OC(F)(F)F)c2)C1C(=O)Nc1ccccc1F (centres unmarked) displays Plant response rating (scale of 0 to 100), Soybean of 0

According to the records, this molecule CN1CC(c2cccc(C(F)(F)F)c2)C(C(=O)Nc2cccc(F)c2F)C1=O (centres unmarked) displays Plant response rating (scale of 0 to 100), Soybean of 0

* * *

For each entry below, report its Plant response rating, Galium value.
- System: galium
- METHOD DESCRIPTION: Test D pre-/postemergence herbicide test
- Format: in vivo, Galium aparine
- DETAILS: Preemergence, 62 g ai/ha; scale 0 to 100 (0 no effect, 100 complete control)
- Description: […]
Hey, just send me the number, nothing else.

Here O=C1NCC(c2ccc(C(F)(F)F)cc2)C1C(=O)Nc1ccccc1F (stereo not shown) was tested on galium, and its Plant response rating, Galium came to 40

Here O=C1NC[C@H](c2cccc(C(F)(F)F)c2)[C@H]1C(=O)Nc1ccccc1F was tested on galium, and its Plant response rating, Galium came to 10

Here O=C1NCC(c2ccc(F)c(C(F)(F)F)c2)C1C(=O)Nc1cccc(F)c1F (racemic) was tested on galium, and its Plant response rating, Galium came to 55

Here O=C1NCC(c2ccc(F)c(F)c2)C1C(=O)Nc1ccccc1C(F)(F)F (racemic) was tested on galium, and its Plant response rating, Galium came to 50
